Parameter IC50: see the listing below.
- target entity: SARS-COV-2 3CLpro/Mpro protease (Severe acute respiratory syndrome coronavirus 2 (2019-nCoV) (SARS-CoV-2))
- experimental protocol: Inhibitory effect on SARS-COV-2 3CLpro/Mpro protease by fluorescence resonance energy transfer
- Assay type: biochemical
- test parameters: activity intervals A-D, read-out: IC50 (nM), Inhibition on SARS-CoV-2 3CLpro/Mpro protease

| compound smiles | IC50 |
| --- | --- |
| COCCN1CCN(C(=O)c2cc(Br)cc([N+](=O)[O-])c2N[C@H]2CN(C(=O)c3cncc(I)c3)CC2(C)C)CC1 | 10 to 50 nM |
| C[C@@H]1CN(C(=O)c2cc(Br)cc([N+](=O)[O-])c2N[C@@H]2CCCN(C(=O)[C@H]3CC(=O)N[C@@H](C)C3)C2)C[C@H](C)O1 | 10 to 50 nM |
| O=C(c1cc(Br)cnc1F)N1CCC[C@@H](Nc2c(C(=O)N3CCC(F)(F)CC3)cc(Br)cc2[N+](=O)[O-])C1 | 10 to 50 nM |
